Where do the numbers come from? From ChEMBL document CHEMBL3885861.

organism: Rattus norvegicus; experiment: Open TG-GATES - Regimen: Daily Repeat; type: toxicity, organism-based, Sprague-Dawley; set-up: regimen Daily Repeat, gender Male, age 6 weeks; conditions: in vivo, po, 0 mg/kg, 72 h, tissue Plasma, route gavage, dose level Control, time 3 day
MEASUREMENT LABEL: AST (IU/L)

[
  {
    "COMPOUND": "Cn1cnc([N+](=O)[O-])c1Sc1ncnc2nc[nH]c12",
    "MEASUREMENT LABEL": "AST",
    "UNIT OF MEASUREMENT": "IU/L",
    "OBSERVED VALUE": 69.2
  },
  {
    "COMPOUND": "C=CCO",
    "MEASUREMENT LABEL": "AST",
    "UNIT OF MEASUREMENT": "IU/L",
    "OBSERVED VALUE": 65.8
  },
  {
    "COMPOUND": "Cc1cccc(Nc2cc(Cl)nc(SCC(=O)O)n2)c1C",
    "MEASUREMENT LABEL": "AST",
    "UNIT OF MEASUREMENT": "IU/L",
    "OBSERVED VALUE": 77
  },
  {
    "COMPOUND": "O=P1(N(CCCl)CCCl)NCCCO1 (stereo unspecified) [CYCLOPHOSPHAMIDE ANHYDROUS]",
    "MEASUREMENT LABEL": "AST",
    "UNIT OF MEASUREMENT": "IU/L",
    "OBSERVED VALUE": 68
  },
  {
    "COMPOUND": "COc1ccc(Cl)cc1C(=O)NCCc1ccc(S(=O)(=O)NC(=O)NC2CCCCC2)cc1 [GLYBURIDE]",
    "MEASUREMENT LABEL": "AST",
    "UNIT OF MEASUREMENT": "IU/L",
    "OBSERVED VALUE": 66.4
  },
  {
    "COMPOUND": "Cc1cnc(NC(=O)C2=C(O)c3ccccc3S(=O)(=O)N2C)s1",
    "MEASUREMENT LABEL": "AST",
    "UNIT OF MEASUREMENT": "IU/L",
    "OBSERVED VALUE": 70.4
  },
  {
    "COMPOUND": "CS(=O)(=O)Nc1ccc([N+](=O)[O-])cc1Oc1ccccc1 [NIMESULIDE]",
    "MEASUREMENT LABEL": "AST",
    "UNIT OF MEASUREMENT": "IU/L",
    "OBSERVED VALUE": 63.6
  },
  {
    "COMPOUND": "COc1ccc(O)c(C(C)(C)C)c1.COc1ccc(O)cc1C(C)(C)C [BUTYLATED HYDROXYANISOLE]",
    "MEASUREMENT LABEL": "AST",
    "UNIT OF MEASUREMENT": "IU/L",
    "OBSERVED VALUE": 66.4
  },
  {
    "COMPOUND": "O=C1CN(/N=C/c2ccc(-c3ccc([N+](=O)[O-])cc3)o2)C(O)=N1",
    "MEASUREMENT LABEL": "AST",
    "UNIT OF MEASUREMENT": "IU/L",
    "OBSERVED VALUE": 62.8
  },
  {
    "COMPOUND": "Cn1c(=O)c2c(ncn2C)n(C)c1=O",
    "MEASUREMENT LABEL": "AST",
    "UNIT OF MEASUREMENT": "IU/L",
    "OBSERVED VALUE": 77
  },
  {
    "COMPOUND": "O=C1NC(=O)C(c2ccccc2)(c2ccccc2)N1",
    "MEASUREMENT LABEL": "AST",
    "UNIT OF MEASUREMENT": "IU/L",
    "OBSERVED VALUE": 71
  }
]

###

KIDNEY_L reference
species on record: Rattus norvegicus; assay: Open TG-GATES - Regimen: Daily Repeat; format: toxicity, organism-based, Sprague-Dawley; parameters: regimen Daily Repeat, gender Male, age 6 weeks; conditions: in vivo, po, 0 mg/kg, 72 h, tissue Kidney, route gavage, dose level Control, time 3 day

[
  {
    "COMPOUND": "Cc1cnc(NC(=O)C2=C(O)c3ccccc3S(=O)(=O)N2C)s1",
    "KIDNEY_L, g": 1
  },
  {
    "COMPOUND": "COc1ccc(Cl)cc1C(=O)NCCc1ccc(S(=O)(=O)NC(=O)NC2CCCCC2)cc1 [GLYBURIDE]",
    "KIDNEY_L, g": 1
  },
  {
    "COMPOUND": "COc1ccc(O)c(C(C)(C)C)c1.COc1ccc(O)cc1C(C)(C)C [BUTYLATED HYDROXYANISOLE]",
    "KIDNEY_L, g": 0.9
  },
  {
    "COMPOUND": "O=P1(N(CCCl)CCCl)NCCCO1 (stereo unspecified) [CYCLOPHOSPHAMIDE ANHYDROUS]",
    "KIDNEY_L, g": 0.9
  },
  {
    "COMPOUND": "Cn1cnc([N+](=O)[O-])c1Sc1ncnc2nc[nH]c12",
    "KIDNEY_L, g": 0.9
  },
  {
    "COMPOUND": "Cn1c(=O)c2c(ncn2C)n(C)c1=O",
    "KIDNEY_L, g": 1
  },
  {
    "COMPOUND": "O=C1NC(=O)C(c2ccccc2)(c2ccccc2)N1",
    "KIDNEY_L, g": 1
  },
  {
    "COMPOUND": "CS(=O)(=O)Nc1ccc([N+](=O)[O-])cc1Oc1ccccc1 [NIMESULIDE]",
    "KIDNEY_L, g": 1
  },
  {
    "COMPOUND": "C=CCO",
    "KIDNEY_L, g": 1
  },
  {
    "COMPOUND": "Cc1cccc(Nc2cc(Cl)nc(SCC(=O)O)n2)c1C",
    "KIDNEY_L, g": 1
  },
  {
    "COMPOUND": "O=C1CN(/N=C/c2ccc(-c3ccc([N+](=O)[O-])cc3)o2)C(O)=N1",
    "KIDNEY_L, g": 1.1
  }
]

###

species: Rattus norvegicus; assay: Open TG-GATES - Regimen: Single; type: toxicity, organism-based, Sprague-Dawley; design: regimen Single, gender Male, age 6 weeks; details: in vivo, po, 0 mg/kg, 6 h, tissue Plasma, route gavage, dose level Control
# label = 1.0 if ALP >= 1000 IU/L else 0.0

[
  {
    "COMPOUND": "CS(=O)(=O)Nc1ccc([N+](=O)[O-])cc1Oc1ccccc1 [NIMESULIDE]",
    "CATEGORY LABEL": 0.0
  },
  {
    "COMPOUND": "Cc1cnc(NC(=O)C2=C(O)c3ccccc3S(=O)(=O)N2C)s1",
    "CATEGORY LABEL": 0.0
  },
  {
    "COMPOUND": "C=CCO",
    "CATEGORY LABEL": 1.0
  },
  {
    "COMPOUND": "COc1ccc(Cl)cc1C(=O)NCCc1ccc(S(=O)(=O)NC(=O)NC2CCCCC2)cc1 [GLYBURIDE]",
    "CATEGORY LABEL": 1.0
  },
  {
    "COMPOUND": "Cc1cccc(Nc2cc(Cl)nc(SCC(=O)O)n2)c1C",
    "CATEGORY LABEL": 1.0
  },
  {
    "COMPOUND": "Cn1cnc([N+](=O)[O-])c1Sc1ncnc2nc[nH]c12",
    "CATEGORY LABEL": 1.0
  },
  {
    "COMPOUND": "O=C1CN(/N=C/c2ccc(-c3ccc([N+](=O)[O-])cc3)o2)C(O)=N1",
    "CATEGORY LABEL": 0.0
  },
  {
    "COMPOUND": "S=C=Nc1cccc2ccccc12 [1-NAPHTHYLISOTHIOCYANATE]",
    "CATEGORY LABEL": 1.0
  },
  {
    "COMPOUND": "O=C1NC(=O)C(c2ccccc2)(c2ccccc2)N1",
    "CATEGORY LABEL": 1.0
  },
  {
    "COMPOUND": "CNCCC(Oc1ccc(C(F)(F)F)cc1)c1ccccc1.Cl (stereo unspecified) [FLUOXETINE HYDROCHLORIDE]",
    "CATEGORY LABEL": 1.0
  },
  {
    "COMPOUND": "COc1ccc(O)c(C(C)(C)C)c1.COc1ccc(O)cc1C(C)(C)C [BUTYLATED HYDROXYANISOLE]",
    "CATEGORY LABEL": 1.0
  }
]
